Listing: pKi of selected compounds
target: Human Histamine H3 Receptor (Homo sapiens, UniProt Q9Y5N1); construct: expressed in transfected cells; host or cells: HEK293T (stably transfected; membranes prepared from the cells); assay: Methyl histamine binding in human histamine H3 receptor cell line; settings: read-out: H3 Binding Ki
Sequence (Q9Y5N1 whole entry): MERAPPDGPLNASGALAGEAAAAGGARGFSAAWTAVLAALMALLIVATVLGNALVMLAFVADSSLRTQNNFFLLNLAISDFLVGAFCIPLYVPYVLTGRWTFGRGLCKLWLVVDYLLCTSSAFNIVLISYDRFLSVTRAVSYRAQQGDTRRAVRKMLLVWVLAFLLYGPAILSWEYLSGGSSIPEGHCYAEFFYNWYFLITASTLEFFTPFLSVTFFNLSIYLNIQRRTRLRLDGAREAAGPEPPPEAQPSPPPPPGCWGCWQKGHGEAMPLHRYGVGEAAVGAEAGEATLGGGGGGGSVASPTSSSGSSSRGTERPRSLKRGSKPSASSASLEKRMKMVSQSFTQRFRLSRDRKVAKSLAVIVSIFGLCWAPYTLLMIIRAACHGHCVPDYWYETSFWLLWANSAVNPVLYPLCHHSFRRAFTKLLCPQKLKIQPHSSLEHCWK
pKi: −log10 of the molar value. Counter-ions that a name gives are not always drawn.

{"COMPOUND": "COC[C@@H]1CCCN1C(=O)c1ccc(-c2ccc3c(c2)CCN(CCN2CCCC2)C3=O)cc1", "pKi": "> 8.00"}
{"COMPOUND": "C[C@@H]1CCCN1CCN1CCc2ccc(-c3ccc(C(=O)N4CCCC4)cc3)cc2C1=O", "pKi": "> 8.00"}
{"COMPOUND": "COC[C@H](C)NC(=O)c1ccc(-c2ccc3c(c2)CCN(CCN2CCCC2)C3=O)cc1", "pKi": "> 8.00"}
{"COMPOUND": "C[C@@H]1CCCN1CCN1CCc2cc(C(=O)NC3CCCC3)ccc2C1=O", "pKi": "> 8.00"}
{"COMPOUND": "N#Cc1ccc(-c2ccc3c(c2)CCN(CCN2CCCC2)C3=O)cc1", "pKi": "> 8.00"}
{"COMPOUND": "O=C1c2ccc(-c3ccc4c(c3)OCO4)cc2CCN1CCN1CCCC1", "pKi": "7.60 to 8.00"}
{"COMPOUND": "C[C@@H]1CCCN1CCN1CCc2cc(Oc3ccc(C#N)nc3)ccc2C1=O", "pKi": "> 8.00"}
{"COMPOUND": "O=C(c1ccc(-c2ccc3c(c2)CCN(CCN2CCCC2)C3=O)cc1F)N1CCCC1", "pKi": "> 8.00"}
{"COMPOUND": "C[C@@H]1CCCN1CCN1CCc2c(cccc2-c2cccc(C#N)c2)C1=O", "pKi": "7.00 to 7.30"}
{"COMPOUND": "O=C(c1ccc(-c2ccc3c(c2)CCN(CCN2CCCC2)C3=O)cc1)N1CCCC1 [Example 54, hydrochloride]", "pKi": "> 8.00"}
{"COMPOUND": "CS(=O)(=O)c1ccc(-c2ccc3c(c2)CCN(CCN2CCCC2)C3=O)cc1", "pKi": "> 8.00"}
{"COMPOUND": "O=C1c2ccc(-c3cccc(C(F)(F)F)c3)cc2CCN1CCN1CCCC1", "pKi": "> 8.00"}
{"COMPOUND": "O=C(NC1CCC1)c1ccc(-c2ccc3c(c2)CCN(CCN2CCCC2)C3=O)cc1", "pKi": "> 8.00"}
{"COMPOUND": "O=C(c1ccc(Oc2ccc3c(c2)CCN(CCN2CCCC2)C3=O)cc1)N1CCCC1", "pKi": "> 8.00"}
{"COMPOUND": "O=C1c2ccc(-c3cccc(OC(F)(F)F)c3)cc2CCN1CCN1CCCC1", "pKi": "7.30 to 7.60"}
{"COMPOUND": "CC(C)NC(=O)c1ccc(-c2ccc3c(c2)C(=O)N(CCN2CCC[C@H]2C)CC3)cc1", "pKi": "> 8.00"}
{"COMPOUND": "C[C@@H]1CCCN1CCN1CCc2cc(C(=O)N3Cc4ccccc4C3)ccc2C1=O", "pKi": "> 8.00"}
{"COMPOUND": "N#Cc1ccc(Oc2ccc3c(c2)CCN(CCN2CCCC2)C3=O)cc1", "pKi": "> 8.00"}
{"COMPOUND": "Fc1cccc(-c2ccc3c(c2)CCN(CCN2CCCC2)C3)c1", "pKi": "7.00 to 7.30"}
{"COMPOUND": "C[C@@H]1CCCN1CCN1CCc2cc(N3CCCCC3)ccc2C1=O", "pKi": "> 8.00"}
{"COMPOUND": "O=C(c1cc(-c2ccc3c(c2)CCN(CCN2CCCC2)C3=O)ccc1F)N1CCCC1", "pKi": "> 8.00"}
{"COMPOUND": "CCNC(=O)c1ccc(-c2ccc3c(c2)CCN(CCN2CCCC2)C3=O)c(F)c1", "pKi": "> 8.00"}
{"COMPOUND": "C[C@@H]1CCCN1CCN1CCc2cc(C(=O)N3CCCCC3)ccc2C1=O", "pKi": "> 8.00"}
{"COMPOUND": "CCNC(=O)c1ccc(-c2ccc3c(c2)CCN(CCN2CCC[C@H]2C)C3=O)cc1", "pKi": "> 8.00"}
{"COMPOUND": "C[C@@H]1CCCN1CCN1CCc2cc(-c3ccc(C(=O)NC4CCC4)cc3)ccc2C1=O", "pKi": "> 8.00"}
{"COMPOUND": "NC(=O)c1ccc(Oc2ccc3c(c2)CCN(CCN2CCCC2)C3=O)cc1", "pKi": "7.60 to 8.00"}
{"COMPOUND": "O=C1c2ccc(-c3ccc(OC(F)(F)F)cc3)cc2CCN1CCN1CCCC1", "pKi": "7.60 to 8.00"}
{"COMPOUND": "C[C@@H]1CCCN1CCN1CCc2cc(C(=O)N3CCc4ccccc4C3)ccc2C1=O", "pKi": "> 8.00"}
{"COMPOUND": "Fc1ccc(-c2ccc3c(c2)CCN(CCN2CCCCCC2)C3)cc1", "pKi": "< 7.00"}
{"COMPOUND": "O=C1c2ccc(-c3ccncc3)cc2CCN1CCN1CCCC1 [Example 34, Hydrochloride]", "pKi": "> 8.00"}
{"COMPOUND": "CNC(=O)c1ccc(-c2ccc3c(c2)CCN(CCN2CCCC2)C3=O)c(F)c1", "pKi": "> 8.00"}
{"COMPOUND": "COCCNC(=O)c1ccc(-c2ccc3c(c2)CCN(CCN2CCCC2)C3=O)cc1", "pKi": "> 8.00"}
{"COMPOUND": "O=C(c1ccc(-c2ccc3c(c2)CCN(CCN2CCCC2)C3=O)cc1)N1CCC1", "pKi": "> 8.00"}
{"COMPOUND": "O=C1c2ccc(-c3ccc(C(F)(F)F)cc3)cc2CCN1CCN1CCCC1", "pKi": "> 8.00"}
{"COMPOUND": "CNC(=O)c1ccc(Oc2ccc3c(c2)CCN(CCN2CCCC2)C3=O)cc1", "pKi": "7.60 to 8.00"}

* * *

Listing: pKi of selected compounds
molecular target: Human Histamine H3 Receptor (Homo sapiens, UniProt Q9Y5N1); construct: expressed in transfected cells; host or cells: HEK293T (stably transfected; membranes prepared from the cells); assay: Methyl histamine binding in human histamine H3 receptor cell line; settings: read-out: H3 Binding Ki
pKi: −log10 of the molar value. Where a name gives a salt, the structure may show the parent alone.
PARAMETER: pKi

{"COMPOUND": "C[C@@H]1CCCN1C(=O)c1ccc(-c2ccc3c(c2)CCN(CCN2CCCC2)C3=O)cc1 [Example 82]", "PARAMETER": "pKi", "RESULT": "> 8.00"}
{"COMPOUND": "O=C1c2ccc(-c3cc(F)cc(F)c3)cc2CCN1CCN1CCCC1 [Example 10]", "PARAMETER": "pKi", "RESULT": "> 8.00"}
{"COMPOUND": "C[C@@H]1CCCN1CCN1CCc2c(cccc2-c2ccc(C#N)cc2)C1=O [Example 28]", "PARAMETER": "pKi", "RESULT": "7.60 to 8.00"}
{"COMPOUND": "O=C1c2ccc(-n3cnc4ccccc43)cc2CCN1CCN1CCCC1 [Example 108, Fumarate Salt]", "PARAMETER": "pKi", "RESULT": "> 8.00"}
{"COMPOUND": "N#Cc1ccc(-c2ccc3c(c2)CCN(CCCN2CCCCC2)C3=O)cc1 [Example 45, hydrochloride]", "PARAMETER": "pKi", "RESULT": "7.60 to 8.00"}
{"COMPOUND": "CCN(C)C(=O)c1ccc(-c2ccc3c(c2)CCN(CCN2CCCC2)C3=O)cc1 [Example 124]", "PARAMETER": "pKi", "RESULT": "> 8.00"}
{"COMPOUND": "O=C(c1ccc(-c2ccc3c(c2)CCN(CCN2CCCC2)C3=O)cc1)N1CCCCC1 [Example 79]", "PARAMETER": "pKi", "RESULT": "> 8.00"}
{"COMPOUND": "N#Cc1ccc(Oc2ccc3c(c2)CCN(CCN2CCCC2)C3=O)cn1 [Example 52]", "PARAMETER": "pKi", "RESULT": "> 8.00"}
{"COMPOUND": "C[C@@H]1CCCN1CCN1CCc2cc(-c3ccc(C(=O)NC4CC4)cc3)ccc2C1=O [Example 76]", "PARAMETER": "pKi", "RESULT": "> 8.00"}
{"COMPOUND": "O=C(c1ccc(-c2ccc3c(c2)CCN(CCN2CCCC2)C3=O)c(F)c1)N1CCCC1 [Example 138]", "PARAMETER": "pKi", "RESULT": "> 8.00"}
{"COMPOUND": "Fc1ccc(-c2ccc3c(c2)CCN(CCN2CCCCC2)C3)cc1 [Example 174]", "PARAMETER": "pKi", "RESULT": "7.00 to 7.30"}
{"COMPOUND": "O=C1c2ccc(-c3ccc(F)cc3)cc2CCN1CCN1CCCC1 [Example 9, Hydrochloride]", "PARAMETER": "pKi", "RESULT": "7.60 to 8.00"}
{"COMPOUND": "O=C(c1ccc(-c2ccc3c(c2)CCN(CCN2CCCC2)C3=O)cc1)C1CC1 [Example 103]", "PARAMETER": "pKi", "RESULT": "> 8.00"}
{"COMPOUND": "N#Cc1ccc(-c2ccc3c(c2)CCN(CCCN2CCCC2)C3=O)cc1 [Example 32]", "PARAMETER": "pKi", "RESULT": "> 8.00"}
{"COMPOUND": "CON(C)C(=O)c1ccc(-c2ccc3c(c2)CCN(CCN2CCCC2)C3=O)cc1 [Example 102]", "PARAMETER": "pKi", "RESULT": "> 8.00"}
{"COMPOUND": "CNC(=O)c1ccc(-c2ccc3c(c2)CCN(CCN2CCC[C@H]2C)C3=O)cc1 [Example 78]", "PARAMETER": "pKi", "RESULT": "> 8.00"}
{"COMPOUND": "C[C@@H]1CCCN1CCN1CCc2cc(Oc3ccc(C#N)cn3)ccc2C1=O [Example 48]", "PARAMETER": "pKi", "RESULT": "> 8.00"}
{"COMPOUND": "C[C@@H]1CCCN1CCN1CCc2cc(C(=O)Nc3ccncc3)ccc2C1=O [Example 153]", "PARAMETER": "pKi", "RESULT": "> 8.00"}
{"COMPOUND": "C[C@@H]1CCCN1CCN1CCc2cc(-c3ccc(C(=O)N4CCCC4)cc3)ccc2C1=O [Example 66]", "PARAMETER": "pKi", "RESULT": "> 8.00"}
{"COMPOUND": "C[C@@H]1CCCN1CCN1CCc2cc(C(=O)NC3CCCCC3)ccc2C1=O [Example 147]", "PARAMETER": "pKi", "RESULT": "> 8.00"}
{"COMPOUND": "C[C@@H]1CCCN1CCN1CCc2cc(C(=O)NC3CCC3)ccc2C1=O [Example 145]", "PARAMETER": "pKi", "RESULT": "> 8.00"}
{"COMPOUND": "C[C@@H]1CCCN1CCN1CCc2cc(-c3ccc(C(=O)NCC4CC4)cc3)ccc2C1=O [Example 73]", "PARAMETER": "pKi", "RESULT": "> 8.00"}
{"COMPOUND": "COC1CCN(C(=O)c2ccc(-c3ccc4c(c3)CCN(CCN3CCCC3)C4=O)cc2)C1 (stereo not shown) [Example 127]", "PARAMETER": "pKi", "RESULT": "> 8.00"}
{"COMPOUND": "C[C@@H]1CCCN1CCN1CCc2cc(Oc3ccc(C(=O)N4CCCC4)cc3)ccc2C1=O [Example 160, hydrochloride]", "PARAMETER": "pKi", "RESULT": "> 8.00"}
{"COMPOUND": "O=C1c2ccc(Cn3cnc4ccccc43)cc2CN1CCN1CCCC1 [Example 112]", "PARAMETER": "pKi", "RESULT": "7.30 to 7.60"}
{"COMPOUND": "O=C(c1ccc(-c2ccc3c(c2)CCN(CCN2CCCC2)C3)cc1)N1CCCCC1 [Example 185]", "PARAMETER": "pKi", "RESULT": "7.60 to 8.00"}
{"COMPOUND": "CNC(=O)c1ccc(-c2ccc3c(c2)CCN(CCCN2CCCC2)C3=O)cc1 [Example 141]", "PARAMETER": "pKi", "RESULT": "> 8.00"}
{"COMPOUND": "O=C1c2ccc(-c3ccc(F)cc3)cc2CCN1CCN1CCCCCC1 [Example 44, hydrochloride]", "PARAMETER": "pKi", "RESULT": "> 8.00"}
{"COMPOUND": "CCOCCNC(=O)c1ccc(-c2ccc3c(c2)CCN(CCN2CCCC2)C3=O)cc1 [Example 72]", "PARAMETER": "pKi", "RESULT": "7.60 to 8.00"}
{"COMPOUND": "NC(=O)c1ccc(-c2ccc3c(c2)CCN(CCN2CCCC2)C3=O)cc1 [Example 67]", "PARAMETER": "pKi", "RESULT": "> 8.00"}
{"COMPOUND": "C[C@@H]1CCCN1CCN1Cc2cc(-c3ccc(C#N)cc3)ccc2C1=O [Example 117]", "PARAMETER": "pKi", "RESULT": "7.60 to 8.00"}
{"COMPOUND": "CN(C)C(=O)c1ccc(-c2ccc3c(c2)CCN(CCN2CCCC2)C3)cc1 [Example 183]", "PARAMETER": "pKi", "RESULT": "> 8.00"}
{"COMPOUND": "C[C@@H]1CCCN1CCN1CCc2cc(C(=O)NC3Cc4ccccc4C3)ccc2C1=O [Example 148]", "PARAMETER": "pKi", "RESULT": "> 8.00"}
{"COMPOUND": "C[C@@H]1CCCN1CCN1CCc2cc(-c3ccc4c(c3)CCNC4=O)ccc2C1=O [Example 157, hydrochloride]", "PARAMETER": "pKi", "RESULT": "> 8.00"}
